Cited source for all entries: paper PMC8113725

Give IC50 for every item shown.
- subject-of-test: D. immitis iPGM (Dirofilaria immitis, UniProt F4ZE01)
- test-name: biochemical
- assay-conditions: Di iPGM Ave IC50 (M)
Hi! Could you send only the number? It should be in M, unit omitted.

Query: Which IC50 value is on record for CC(C)C[C@H](NC(=O)[C@H](Cc1ccc(O)cc1)NC(=O)[C@@H]1CSCC(=O)N[C@H](Cc2ccc(O)cc2)C(=O)N[C@@H](CC(=O)O)C(=O)N[C@@H](Cc2ccc(O)cc2)C(=O)N2CCC[C@H]2C(=O)NCC(=O)N[C@@H](CC(=O)O)C(=O)N[C@@H](Cc2ccc(O)cc2)C(=O)N1)C(=O)N[C@@H](Cc1ccc(O)cc1)C(=O)O ?
Response: 7.75e-07

Query: And for CC(C)C[C@H](NC(=O)[C@H](Cc1ccc(O)cc1)NC(=O)[C@@H]1CSCC(=O)N[C@H](Cc2ccc(O)cc2)C(=O)N[C@@H](CC(=O)O)C(=O)N[C@@H](Cc2ccc(O)cc2)C(=O)N2CCC[C@H]2C(=O)NCC(=O)N[C@@H](CC(=O)O)C(=O)N[C@@H](Cc2ccc(O)cc2)C(=O)N1)C(=O)N[C@@H](Cc1ccc(O)cc1)C(=O)NCCCC(=O)N[C@@H](CS)C(N)=O [Ce-2 [12-13]GABA] ?
Response: 2.85e-09

Query: And for CC(C)C[C@H](NC(=O)[C@H](Cc1ccc(O)cc1)NC(=O)[C@@H]1CSCC(=O)N[C@H](Cc2ccc(O)cc2)C(=O)N[C@@H](CC(=O)O)C(=O)N[C@@H](Cc2ccc(O)cc2)C(=O)N2CCC[C@H]2C(=O)NCC(=O)N[C@@H](CC(=O)O)C(=O)N[C@@H](Cc2ccc(O)cc2)C(=O)N1)C(=O)N[C@@H](Cc1ccc(O)cc1)C(=O)NCC(=O)NCC(=O)N[C@@H](CS)C(N)=O [Ce-2 T13G] ?
Response: 1.08e-09

---

- subject-of-test: D. immitis iPGM (Dirofilaria immitis, UniProt F4ZE01)
- test-name: biochemical
- assay-conditions: Di iPGM Ave IC50 (M)
Give log10(IC50) for every item shown.
Scale: decimal log of IC50, IC50 in M.

Query: Which log10(IC50) value is on record for CC(C)C[C@H](NC(=O)[C@H](Cc1ccc(O)cc1)NC(=O)[C@@H]1CSCC(=O)N[C@H](Cc2ccc(F)cc2)C(=O)N[C@@H](CC(=O)O)C(=O)N[C@@H](Cc2ccc(O)cc2)C(=O)N2CCC[C@H]2C(=O)NCC(=O)N[C@@H](CC(=O)O)C(=O)N[C@@H](Cc2ccc(O)cc2)C(=O)N1)C(=O)N[C@@H](Cc1ccc(O)cc1)C(N)=O [Ce-2d Y1D(4F)F] ?
Response: -7.43

Query: And for CC(C)C[C@H](NC(=O)[C@H](Cc1ccc(O)cc1)NC(=O)[C@@H]1CSCC(=O)N[C@H](Cc2ccc(O)cc2)C(=O)NCC(=O)N[C@@H](Cc2ccc(O)cc2)C(=O)N2CCC[C@H]2C(=O)NCC(=O)N[C@@H](CC(=O)O)C(=O)N[C@@H](Cc2ccc(O)cc2)C(=O)N1)C(=O)N[C@@H](Cc1ccc(O)cc1)C(N)=O [Ce-2d D2G] ?
Response: -5.88

Query: And for CC(C)C[C@H](NC(=O)[C@H](Cc1ccc(O)cc1)NC(=O)[C@@H]1CSCC(=O)N[C@H](Cc2ccc(O)cc2)C(=O)N[C@@H](CC(=O)O)C(=O)N[C@@H](Cc2c[nH]c3ccccc23)C(=O)N2CCC[C@H]2C(=O)NCC(=O)N[C@@H](CC(=O)O)C(=O)N[C@@H](Cc2ccc(O)cc2)C(=O)N1)C(=O)N[C@@H](Cc1ccc(O)cc1)C(N)=O [Ce-2d Y3W] ?
Response: -5.15

Query: And for CC(C)C[C@H](NC(=O)[C@H](Cc1ccc(O)cc1)NC(=O)[C@@H]1CSCC(=O)N[C@H](Cc2ccc(O)cc2)C(=O)N[C@@H](CC(=O)O)C(=O)N[C@@H](Cc2ccccc2)C(=O)N2CCC[C@H]2C(=O)NCC(=O)N[C@@H](CC(=O)O)C(=O)N[C@@H](Cc2ccc(O)cc2)C(=O)N1)C(=O)N[C@@H](Cc1ccc(O)cc1)C(N)=O [Ce-2d Y3F] ?
Response: -5.49

Query: And for CC(C)C[C@H](NC(=O)[C@H](Cc1ccc(O)cc1)NC(=O)[C@@H]1CSCC(=O)N[C@H](Cc2ccc(O)cc2)C(=O)N[C@@H](CCC(=O)O)C(=O)N[C@@H](Cc2ccc(O)cc2)C(=O)N2CCC[C@H]2C(=O)NCC(=O)N[C@@H](CC(=O)O)C(=O)N[C@@H](Cc2ccc(O)cc2)C(=O)N1)C(=O)N[C@@H](Cc1ccc(O)cc1)C(N)=O [Ce-2d D2E] ?
Response: -7.00
